For each entry below, report its pIC50 value.
biological target: SGLT1 (Homo sapiens (Human)); experiment: SGLT1 activity measurement: [14C] methyl α-D-glucopyranoside uptake in SGLT1 instantaneous transfer strain; settings: SGLT1 transfected cells, 96-well plate, 15 min preincubation, 2 hours with [14C] methyl α-D-glucopyranoside at 37° C.
Sequence (P13866 whole entry, species assumed): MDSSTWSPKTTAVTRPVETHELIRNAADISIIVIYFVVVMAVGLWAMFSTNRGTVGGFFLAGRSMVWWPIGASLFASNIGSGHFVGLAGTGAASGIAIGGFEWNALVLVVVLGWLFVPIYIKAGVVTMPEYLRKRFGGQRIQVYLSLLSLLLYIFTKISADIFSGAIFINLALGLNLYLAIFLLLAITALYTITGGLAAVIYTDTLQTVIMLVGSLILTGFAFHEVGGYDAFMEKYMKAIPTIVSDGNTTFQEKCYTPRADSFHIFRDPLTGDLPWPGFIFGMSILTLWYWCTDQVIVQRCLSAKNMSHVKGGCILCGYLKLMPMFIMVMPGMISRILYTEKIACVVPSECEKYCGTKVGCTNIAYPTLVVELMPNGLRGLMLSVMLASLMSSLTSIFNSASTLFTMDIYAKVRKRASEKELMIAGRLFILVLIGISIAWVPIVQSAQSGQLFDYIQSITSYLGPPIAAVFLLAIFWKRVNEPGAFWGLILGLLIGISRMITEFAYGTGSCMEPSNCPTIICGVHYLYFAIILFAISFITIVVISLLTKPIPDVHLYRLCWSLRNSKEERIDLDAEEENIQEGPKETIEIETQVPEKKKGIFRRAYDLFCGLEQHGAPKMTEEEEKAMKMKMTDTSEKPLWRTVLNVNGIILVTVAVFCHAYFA
One number for each entry, as −log10 of the molar value.

Reference set, count: 3
OCC12COC(c3ccc(Cl)c(Cc4ccc(OCC(F)(F)F)cc4)c3)(O1)C(O)C(O)C2O (single isomer, unassigned) ... 4.85
[2H]C([2H])([2H])C([2H])([2H])Oc1ccc(Cc2cc(C34OCC(CO)(O3)[C@@H](O)[C@H](O)[C@H]4O)ccc2Cl)cc1F (stereo in doubt) ... 5.91
[2H]C([2H])([2H])Oc1ccc(Cc2cc(C34OCC(CO)(O3)[C@@H](O)[C@H](O)[C@H]4O)ccc2Cl)cc1F (stereo in doubt) ... 6.22

For each of the compounds below, state pIC50.
1. [2H]C([2H])(c1ccc(OCC)c(F)c1)c1cc(C23OCC(CO)(O2)[C@@H](O)[C@H](O)[C@H]3O)ccc1Cl (stereo in doubt)
2. OCC12COC(c3ccc(Cl)c(Cc4ccc5c(c4)CCO5)c3)(O1)C(O)C(O)C2O (single isomer, unassigned)

[5.45, 5.60]

----------
molecular target: UniProt:P13866; assay: SGLT1 activity measurement: [14C] methyl α-D-glucopyranoside uptake in SGLT1 instantaneous transfer strain; conditions: SGLT1 transfected cells, 96-well plate, 15 min preincubation, 2 hours with [14C] methyl α-D-glucopyranoside at 37° C.
PARAMETER: IC50

For each of the compounds below, state IC50.
1. COc1ccc(Cc2cc(C34OCC(CO)(O3)[C@@H](O)[C@H](O)[C@H]4O)ccc2Cl)c(F)c1F (stereo in doubt)
2. Cc1ccc(C23OCC(CO)(O2)C(O)C(O)C3O)cc1Cc1ccc(-c2ccc(F)cc2)s1 (single isomer, unassigned)
3. OCC12COC(c3ccc(Cl)c(Cc4ccc(OCCOC5CC5)cc4)c3)(O1)[C@H](O)[C@@H](O)[C@@H]2O (stereo in doubt)

1. > 2 µM
2. 1.26 µM
3. > 2 µM

----------
For each entry below, report its pIC50 value.
target: UniProt:P31639; assay: SGLT2 activity measurement: [14C] methyl α-D-glucopyranoside uptake in SGLT2 instantaneous transfer strain; settings: SGLT2 transfected cells, 96-well plate, 15 min preincubation, 2 hours with [14C] methyl α-D-glucopyranoside at 37° C.
Sequence (P31639 whole entry, species assumed): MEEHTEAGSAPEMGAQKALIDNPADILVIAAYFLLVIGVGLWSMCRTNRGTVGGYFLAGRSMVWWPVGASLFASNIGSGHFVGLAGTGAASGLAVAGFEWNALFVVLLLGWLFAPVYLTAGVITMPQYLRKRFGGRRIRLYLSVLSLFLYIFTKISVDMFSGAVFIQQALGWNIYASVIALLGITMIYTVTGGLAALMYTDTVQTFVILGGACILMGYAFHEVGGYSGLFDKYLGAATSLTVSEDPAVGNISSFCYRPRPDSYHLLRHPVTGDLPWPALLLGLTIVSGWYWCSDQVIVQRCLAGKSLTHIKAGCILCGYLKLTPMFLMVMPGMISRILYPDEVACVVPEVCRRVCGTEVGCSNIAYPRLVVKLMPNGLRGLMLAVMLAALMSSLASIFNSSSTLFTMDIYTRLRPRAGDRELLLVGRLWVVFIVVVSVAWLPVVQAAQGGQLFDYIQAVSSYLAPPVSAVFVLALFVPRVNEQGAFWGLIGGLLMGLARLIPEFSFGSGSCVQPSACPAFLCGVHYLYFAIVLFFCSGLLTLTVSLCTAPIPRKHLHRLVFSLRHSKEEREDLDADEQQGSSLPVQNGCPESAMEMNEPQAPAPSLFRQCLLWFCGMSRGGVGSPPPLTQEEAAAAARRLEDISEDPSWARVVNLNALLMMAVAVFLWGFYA
Answers are plain numbers, as −log10 of the molar value.

Cc1ccc(C23OCC(CO)(O2)C(O)C(O)C3O)cc1Cc1ccc(-c2ccc(F)cc2)s1 (single isomer, unassigned) ... 8.03
CCOc1ccc(Cc2cc(C34OCC(CO)(O3)C(O)C(O)C4O)ccc2Cl)cc1F (single isomer, unassigned) ... 8.16
[2H]C([2H])(c1ccc(OCC)c(F)c1)c1cc(C23OCC(CO)(O2)[C@@H](O)[C@H](O)[C@H]3O)ccc1Cl (stereo in doubt) ... 8.20
OCC12COC(c3ccc(Cl)c(Cc4ccc(OCC(F)(F)F)cc4)c3)(O1)C(O)C(O)C2O (single isomer, unassigned) ... 8.34
[2H]C([2H])([2H])Oc1ccc(Cc2cc(C34OCC(CO)(O3)[C@@H](O)[C@H](O)[C@H]4O)ccc2Cl)cc1F (stereo in doubt) ... 8.85

For each of the molecules below, state pIC50.
1. COc1ccc(Cc2cc(C34OCC(CO)(O3)[C@@H](O)[C@H](O)[C@H]4O)ccc2Cl)c(F)c1F (stereo in doubt)
2. OCC12COC(c3ccc(Cl)c(Cc4ccc(OCCOC5CC5)cc4)c3)(O1)[C@H](O)[C@@H](O)[C@@H]2O (stereo in doubt)
3. CCOc1ccc(Cc2cc(C34OCC(CO)(O3)C(O)C(O)C4O)ccc2Cl)c(F)c1F (single isomer, unassigned)
4. [2H]C([2H])([2H])C([2H])([2H])Oc1ccc(Cc2cc(C34OCC(CO)(O3)[C@@H](O)[C@H](O)[C@H]4O)ccc2Cl)cc1F (stereo in doubt)

1. 8.44
2. 8.02
3. 8.09
4. 8.48
